// provenance: the supplement of paper PMC10567573

For each of the variants below, state its protein stability index.
B1: IFRG15 (parent)
chain: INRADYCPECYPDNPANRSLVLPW

variants of: B1; experiment: protein stability index of a GFP-peptide fusion (GPS, HEK-293T) (PSI 1-6); higher = more stable; conditions: c terminus: a fixed tail appended;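 note: lentivirally expressed fusions sorted by FACS into six bins by GFP to DsRed ratio, PSI derived from sequencing read proportions per bin multiplied by bin number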
Lab note: record just the number, no unit beside it.

Task: If you can, please state the reported protein stability index value of D5I .
Output: 1.99

Task: Consider the variant E9C and give its measured protein stability index.
Output: 2.4

Task: Look up protein stability index: L22R
Output: 2.36

Task: Query: protein stability index; subject: N17V
Output: 1.79

Task: Would you mind telling me what protein stability index value was observed for E9M ?
Output: 1.82

Task: # query: protein stability index of entry P12R
Output: 2.05

Task: Recorded protein stability index of P15W , please.
Output: 2.19

Task: // returns reported protein stability index for input L20C
Output: 2.06

Task: Form field: reported protein stability index of N14L
Output: 1.67

Task: What protein stability index value was documented for this variant, Y6E ?
Output: 2.52
